biological target: plasma purified human complement protein C3 (human) (UniProt P01024); assay: cell-based or functional assay
Sequence (P01024 23-667, chain 1 of 2): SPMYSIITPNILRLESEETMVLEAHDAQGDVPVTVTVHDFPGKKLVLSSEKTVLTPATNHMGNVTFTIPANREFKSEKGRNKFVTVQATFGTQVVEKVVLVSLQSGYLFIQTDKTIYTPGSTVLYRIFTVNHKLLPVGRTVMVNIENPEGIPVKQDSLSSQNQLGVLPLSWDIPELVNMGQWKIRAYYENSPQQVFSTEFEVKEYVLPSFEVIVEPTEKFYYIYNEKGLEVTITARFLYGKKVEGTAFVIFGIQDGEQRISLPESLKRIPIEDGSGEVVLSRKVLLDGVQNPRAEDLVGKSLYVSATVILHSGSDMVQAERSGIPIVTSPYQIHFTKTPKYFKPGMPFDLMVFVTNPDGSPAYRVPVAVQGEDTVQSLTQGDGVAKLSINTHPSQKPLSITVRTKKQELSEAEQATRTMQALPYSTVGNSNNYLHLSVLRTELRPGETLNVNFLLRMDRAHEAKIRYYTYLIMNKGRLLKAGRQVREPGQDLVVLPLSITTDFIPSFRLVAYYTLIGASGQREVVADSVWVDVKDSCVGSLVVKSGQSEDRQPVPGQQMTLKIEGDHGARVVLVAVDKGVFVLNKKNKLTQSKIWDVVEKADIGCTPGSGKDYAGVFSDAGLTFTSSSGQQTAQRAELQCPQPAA
Sequence (P01024 672-1663, chain 2 of 2): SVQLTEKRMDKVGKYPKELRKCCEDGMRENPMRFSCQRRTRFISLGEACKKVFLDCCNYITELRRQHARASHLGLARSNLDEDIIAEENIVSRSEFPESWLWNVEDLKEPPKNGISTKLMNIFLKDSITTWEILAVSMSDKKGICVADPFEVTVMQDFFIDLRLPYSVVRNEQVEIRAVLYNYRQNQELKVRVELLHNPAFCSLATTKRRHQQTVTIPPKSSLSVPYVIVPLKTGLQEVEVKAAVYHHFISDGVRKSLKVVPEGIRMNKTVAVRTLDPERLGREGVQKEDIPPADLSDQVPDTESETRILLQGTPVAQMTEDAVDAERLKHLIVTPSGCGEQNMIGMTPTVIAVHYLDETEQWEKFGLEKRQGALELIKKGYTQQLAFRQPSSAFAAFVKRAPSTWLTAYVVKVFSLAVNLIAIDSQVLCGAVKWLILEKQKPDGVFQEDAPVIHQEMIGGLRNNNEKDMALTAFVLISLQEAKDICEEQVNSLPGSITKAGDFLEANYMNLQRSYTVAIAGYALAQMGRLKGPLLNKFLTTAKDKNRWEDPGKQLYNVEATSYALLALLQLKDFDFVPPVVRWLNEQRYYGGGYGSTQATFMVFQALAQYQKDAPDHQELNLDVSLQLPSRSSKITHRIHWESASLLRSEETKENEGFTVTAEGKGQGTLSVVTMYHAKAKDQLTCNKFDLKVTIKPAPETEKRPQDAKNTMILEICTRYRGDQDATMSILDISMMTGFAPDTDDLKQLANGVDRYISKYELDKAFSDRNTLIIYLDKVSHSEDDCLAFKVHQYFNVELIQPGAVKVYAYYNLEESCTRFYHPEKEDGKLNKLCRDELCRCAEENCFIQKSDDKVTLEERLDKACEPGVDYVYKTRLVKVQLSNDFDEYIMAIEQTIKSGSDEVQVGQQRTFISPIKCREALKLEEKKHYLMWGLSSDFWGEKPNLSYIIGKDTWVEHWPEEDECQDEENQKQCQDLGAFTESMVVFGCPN
Measured Metric: EC50 of hC3 cleavage (nM)
Kindly provide the numeric value in nM only, without the unit symbol.

Binder | Unit | EC50 of hC3 cleavage
MTSP-1 I41D/Y59F/C122S/G151N/Q192T (enzyme) VVGGTDADEGEWPWQVSLHALGQGHDCGASLISPNWLVSAAHCFIDDRGFRYSDPTQWTAFLGLHDQSQRSAPGVQERRLKRIISHPFFNDFTFDYDIALLELEKPAEYSSMVRPISLPDASHVFPAGKAIWVTGWGHTQYGGTNALILQKGEIRVINQTTCENLLPQQITPRMMCVGFLSGGVDSCTGDSGGPLSSVEADGRIFQAGVVSWGDGCAQRNKPGVYTRLPLFRDWIKENTGV | nM | 56.7

Query: Item MTSP-1 ins97aV/F97D/T98P/F99L/C122S/Q192G (enzyme) VVGGTDADEGEWPWQVSLHALGQGHICGASLISPNWLVSAAHCYIDDRGFRYSDPTQWTAFLGLHDQSQRSAPGVQERRLKRIISHPFFNDDVPLDYDIALLELEKPAEYSSMVRPISLPDASHVFPAGKAIWVTGWGHTQYGGTGALILQKGEIRVINQTTCENLLPQQITPRMMCVGFLSGGVDSCGGDSGGPLSSVEADGRIFQAGVVSWGDGCAQRNKPGVYTRLPLFRDWIKENTGV has what recorded EC50 of hC3 cleavage?
Response: 53.5
